- PROTOCOL: Inhibition of Vibrio cholerae alpha carbonic anhydrase preincubated for 15 mins by stopped-flow CO2 hydrase assay
Our labelling divides records by Ki into ranges: bucket A = under 70 µM, bucket B = from 70 µM up to 3000 µM, bucket C = 3000 µM and over

Solved entries (count: 3):
compound="N#CS [THIOCYANIC ACID]" class_assignment="bucket B"
compound="S=C(S)S [CARBONOTRITHIOIC ACID]" class_assignment="bucket B"
compound="Br [BROMIDE]" class_assignment="bucket C"

The entry to classify is N#CO [CYANATE] ; which class holds it?
bucket B

In plain terms, what class is Cl [HYDROCHLORIC ACID] ?
bucket B

// return the class label for "O=S(=O)(O)NS(=O)(=O)O"
bucket C

In plain terms, what class is "[N-]=[N+]=[N-]" ?
bucket B

Field: class (Ki) — entry: S [HYDROGEN SULFIDE]
bucket B

Where would I [IODIDE] land among the classes by reported Ki?
bucket C

GET /class?item= O=[As](O)(O)c1ccccc1 [PHENYLARSONIC ACID]
bucket A

Which bin, given its Ki, does CCN(CC)C(=S)S [DITIOCARB] occupy?
bucket A

// return the class label for OB(O)c1ccccc1 [PHENYLBORONIC ACID]
bucket A

Class? Entry: O=NO [NITROUS ACID]
bucket C

====

- PROTOCOL: Inhibition of Vibrio cholerae carbonic anhydrase beta preincubated for 15 mins by stopped-flow CO2 hydrase assay
Reported pKi is given for each of the following compounds.
// scale note: pKi = -log10(conc_M); give the bare number

Reference set (6 entries):
compound=O=[Se](=O)(O)O reported_metric=pKi endpoint_value=2.47
compound="I [IODIDE]" reported_metric=pKi endpoint_value=2.05
compound="Br [BROMIDE]" reported_metric=pKi endpoint_value=2.13
compound=S=C(S)S reported_metric=pKi endpoint_value=2.15
compound=N#C[SeH] reported_metric=pKi endpoint_value=2.28
compound=CCN(CC)C(=S)S reported_metric=pKi endpoint_value=3.14

So what's the measured pKi for this one? "O=[Te](=O)(O)O"
2.64

====

- ASSAY_SYSTEM: UniProt:P00915
- Sequence (P00915 whole entry): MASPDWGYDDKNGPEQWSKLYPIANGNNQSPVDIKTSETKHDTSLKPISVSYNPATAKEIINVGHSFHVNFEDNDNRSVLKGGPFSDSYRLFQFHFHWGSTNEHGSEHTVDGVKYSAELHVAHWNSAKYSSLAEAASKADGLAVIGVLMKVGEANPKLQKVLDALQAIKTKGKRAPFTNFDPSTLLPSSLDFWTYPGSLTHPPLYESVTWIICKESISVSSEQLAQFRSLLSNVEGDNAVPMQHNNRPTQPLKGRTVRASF
REPORTED_METRIC: pKi
Scale note: pKi = -log10(concentration in M).

Can you look up the measured pKi of "N#C[SeH]" for me?
5.07

====

- PROTOCOL: Inhibition of Vibrio cholerae alpha carbonic anhydrase preincubated for 15 mins by stopped-flow CO2 hydrase assay
Classes (Ki): c1 (below 700 µM), c2 (700 µM to below 10000 µM), c3 (10000 µM or more)

molecule=O=S(=O)(O)O class_assignment=c2
molecule="NS(=O)(=O)O [SULFAMATE]" class_assignment=c1
molecule="[O-][Cl+3]([O-])([O-])O [PERCHLORATE]" class_assignment=c3
molecule="F [FLUORIDE ION]" class_assignment=c2
molecule=N#C[SeH] class_assignment=c2
molecule=O=S(=O)(O)OOS(=O)(=O)O class_assignment=c3
molecule=O=[N+]([O-])O class_assignment=c1
molecule=F[B-](F)(F)F class_assignment=c3
molecule="NS(N)(=O)=O [SULFAMIDE]" class_assignment=c1
molecule=O=[Te](=O)(O)O class_assignment=c3

Let's switch to this molecule now.
Which category fits this record: "O=[Se](=O)(O)O"
c3

Hey, just so you know, these numbers are from ChEMBL document CHEMBL3813622.
